Provenance of the data: patent US20260193271A1

IC50 listing for selected molecules.
System: SW480 (G12V)
Experiment: In vitro cell proliferation inhibition test (CellTiter-Glo), SW480
Format: cell-based
Conditions: Homo sapiens, SW480 colon cell line, KRAS (p.G12V), 72 h co-incubation

{"columns": ["molecule", "IC50 / nM"],
 "data": [
  ["CCn1c(-c2cc(-c3ncc(CN4CCS(=N)(=O)CC4)cn3)cnc2[C@H](C)OC)c2c3cc(ccc31)-c1csc(n1)C[C@H](NC(=O)[C@H]1C[C@@H]1C)C(=O)N1CCC[C@H](N1)C(=O)OCC(C)(C)C2 (atropisomer, axis not shown)", 4.3],
  ["CCn1c(-c2cc(-c3cc([C@@H]4CN(C)CCO4)on3)cnc2[C@H](C)OC)c2c3cc(ccc31)-c1csc(n1)C[C@H](NC(=O)[C@H]1[C@H](C)[C@@H]1C)C(=O)N1CCC[C@H](N1)C(=O)OCC(C)(C)C2 (atropisomer, axis not shown)", 1.8]
]}

---

Tested on: SW480 (G12V)
Test: In vitro cell proliferation inhibition test (CellTiter-Glo), SW480
Format: cell-based
Settings: Homo sapiens, SW480 colon cell line, KRAS (p.G12V), 72 h co-incubation

{"columns": ["compound", "IC50 / nM"],
 "data": [
  ["CO[C@@H](C)c1ncc(-c2cnc(CN3CCOCC3)nc2)cc1-c1c2c3cc(ccc3n1CC(F)(F)F)-c1csc(n1)C[C@H](NC(=O)[C@H]1[C@H](C)[C@@H]1C)C(=O)N1CCC[C@H](N1)C(=O)OCC(C)(C)C2 (atropisomer, axis not shown)", 0.35],
  ["CCn1c(-c2cc(-c3cnn(C4CCN(C)CC4)c3)cnc2[C@H](C)OC)c2c3cc(ccc31)-c1csc(n1)C[C@H](NC(=O)[C@H]1C[C@@H]1C)C(=O)N1CCC[C@H](N1)C(=O)OCC(C)(C)C2 (atropisomer, axis not shown)", 71],
  ["CCn1c(-c2cc(-c3cnc(CN4CCN5CCOC[C@@H]5C4)nc3)cnc2[C@H](C)OC)c2c3cc(ccc31)-c1csc(n1)C[C@H](NC(=O)[C@H]1C[C@@H]1C)C(=O)N1CCC[C@H](N1)C(=O)OCC(C)(C)C2 (atropisomer, axis not shown)", 20],
  ["CCn1c(-c2cc(-c3cc([C@@H]4CCN(C)C4)on3)cnc2[C@H](C)OC)c2c3cc(ccc31)-c1csc(n1)C[C@H](NC(=O)[C@H]1[C@H](C)[C@@H]1C)C(=O)N1CCC[C@H](N1)C(=O)OCC(C)(C)C2 (atropisomer, axis not shown)", 10],
  ["CCn1c(-c2cc(-c3cnn(CCN4CCN(C)CC4)c3)cnc2[C@H](C)OC)c2c3cc(ccc31)-c1csc(n1)C[C@H](NC(=O)[C@H]1[C@H](C)[C@@H]1C)C(=O)N1CCC[C@H](N1)C(=O)OCC(C)(C)C2 (atropisomer, axis not shown)", 4.5],
  ["CCn1c(-c2cc(-c3cnc(N(C)C)nc3)cnc2[C@H](C)OC)c2c3cc(ccc31)-c1csc(n1)C[C@H](NC(=O)[C@H]1C[C@@H]1C)C(=O)N1CCC[C@H](N1)C(=O)OCC(C)(C)C2 (atropisomer, axis not shown)", 6.2],
  ["CCn1c(-c2cc(-c3cc(CNC)on3)cnc2[C@H](C)OC)c2c3cc(ccc31)-c1csc(n1)C[C@H](NC(=O)[C@H]1C[C@@H]1C)C(=O)N1CCC[C@H](N1)C(=O)OCC(C)(C)C2 (atropisomer, axis not shown)", 117],
  ["CCn1c(-c2cc(-c3nc(C)n(C)n3)cnc2[C@H](C)OC)c2c3cc(ccc31)-c1csc(n1)C[C@H](NC(=O)[C@H]1C[C@@H]1C)C(=O)N1CCC[C@H](N1)C(=O)OCC(C)(C)C2 (atropisomer, axis not shown)", 3]
]}
